# target.entity: Alpha-galactosidase (Coffea arabica)
# assay: Counterscreen for Glucocerebrosidase Inhibitors: qHTS Assay for Coffee Bean alpha-Galactosidase at pH 4.5 (AID 957);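 also: plate controls were enzyme alone for no effect and no enzyme for full effect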
# condition.summary: purified coffee bean alpha-galactosidase, fluorogenic substrate; series mostly up to 76.9 µM
Activity calls are given as the source filed them. Calls follow the shape of the dose curve; as a rule, active = well fitted curve in the direction sought with a large enough effect; inconclusive = small, poorly fitted or top-dose-only effect, or another doubt; inactive = no such curve, though single readings can be large or run the other way.

item.smiles	outcome
O=[N+]([O-])c1cccc2cn[nH]c12	inactive
O=C1NC(c2cccc([N+](=O)[O-])c2)=CCN1c1ccccc1O	inactive
CN=C(N)NCCC[C@H](N)C(=O)O	inactive

---

# Test system: C33A
# assay: Primary qHTS to identify gynecologic anti-cancer compounds using libraries of approved drugs and bioactive compounds (AID 1345084); also: nearly all actives have a fitted effect of over 55% in size
# condition.summary: Gynecologic cancer cell panel viability, ATPlite luminescence, 48 h; series mostly up to 57.5 µM
# From the text: National Center for Advancing Translational Sciences [NCATS] Assay Overview: Chemotherapeutic drug responses vary from cancer to cancer and from patient to patient. […] ATPlite is a luminescence based assay reliant on the conversion of a luciferase substrate to light in the presence of ATP. As a cytotoxic compound will suppress growth and decrease the number of cells, the concentration of ATP will decrease, and less light signal will be detected in the well. […]
Records with an inconclusive call do not appear. Active and inactive are the calls of the source. Calls follow the shape of the dose curve; as a rule, active = well fitted cell-killing curve with a large enough effect; inconclusive = small, poorly fitted or top-dose-only effect, or effect the other way; inactive = flat fitted curve, though single readings scatter.
In this exercise, the only acceptable responses are active, inactive

Check out these entries, answers already filled in.
compound	class.assignment
COC1CC(OC2CCC3(C=O)C(CCC4C3CCC3(C)C(C5=CC(=O)OC5)CCC43O)C2)OC(C)C1O (stereo not drawn)	active
C[N@@+]1(CC2CC2)CC[C@]23c4c5ccc(O)c4O[C@H]2C(=O)CC[C@@]3(O)[C@H]1C5	inactive
CCCCCn1cc(C(=O)c2cccc3ccccc23)c2ccccc21	inactive

Could you kindly confirm the outcome this assay logged for C[C@]12CC[C@H](O)C[C@@H]1CC[C@@H]1[C@@H]2CC[C@]2(C)C(=O)CC[C@@H]12 ?
inactive

Now the compound CC1CCCCCC(=O)c2c(O)cc(O)cc2CC(=O)O1 (stereo not drawn)
inactive

Now the compound CCC1CN2CCc3cc(OC)c(OC)cc3C2CC1CC1=NCCc2cc(O)c(OC)cc21 (stereo not drawn)
inactive

Now the compound COC1CC(O[C@H]2CC[C@]3(C)C4CC[C@]5(C)[C@@H](C6=CC(=O)OC6)[C@@H](OC(C)=O)C[C@]5(O)C4CC[C@@H]3C2)OC(C)C1O (stereo partly drawn)
active

Now the compound C=C1C2(C)CC3C(C)(O)C4=CC(=O)OC(C)(C)C4=CCC3(C)C13C(=O)OC(C)C3(O)C2=O (stereo not drawn)
inactive

---

# assay: qHTS for Inhibitors of the Functional Ribonucleoprotein Complex (vRNP) of Lassa (LASV) Arenavirus: LASV Primary Screen - GLuc reporter signal (AID 1347082); also: nearly all actives have a fitted effect of over 60% in size
# condition.summary: LASV minigenome vRNP, Gaussia luciferase reporter; series mostly up to 57.5 µM
Results filed as inconclusive are left out. Activity calls are given as the source filed them. The call rests on the fitted dose curve; tested in HEK293 reporter line.
In this exercise, the only acceptable responses are active, inactive

Check out these entries, answers already filled in.
compound	class.assignment
Cn1c(=O)c2[nH]c(C3CCCC3)nc2n(C)c1=O	inactive
O=C1C[C@@H](c2ccc(O)cc2)Oc2cc(O)cc(O)c21	inactive
O=c1cc(-c2ccc(O)c(O)c2)oc2cc(O)cc(O)c12	inactive
CN1CCc2cc(NC(=O)Nc3cccnc3)ccc21	inactive
CC12C=CC(=O)C=C1CCC1C2C(=O)CC2(C)C(=O)CCC12 (centres undefined)	inactive

Now let's try a different one.
Could you kindly confirm the outcome this assay logged for CNc1nc(Nc2ccc(C(=O)N3CCOCC3)cc2OC)ncc1Cl ?
inactive

---

# Test system: KB-3-1
# assay: Cytotoxic Profiling of Annotated Libraries Using Quantitative High-Throughput Screening (AID 1296008); also: nearly all actives have a fitted effect of over 60% in size
# condition.summary: Five cell lines viability, CellTiter-Glo ATP luminescence, 48-72 h
Results filed as inconclusive are left out. The source made the active and inactive calls. The call rests on the fitted dose curve; in most records, active means well fitted inhibition curve with a large enough effect; inconclusive means small, poorly fitted or top-dose-only effect; inactive means flat fitted curve, though single readings scatter.
In this exercise, the only acceptable responses are 1 (yes) (active), 0 (no) (inactive)

Check out these entries, answers already filled in.
compound	target.entity	class.assignment
C[C@H]1C/C=C/[C@H]2[C@@H]3O[C@]3(C)[C@@H](C)[C@H]3[C@H](Cc4ccccc4)NC(=O)[C@]32OC(=O)O/C=C/[C@@](C)(O)C1=O	KB-3-1	1 (yes)
C/C=C(\C)C(=O)O[C@@H]1[C@@H](C)[C@]2(O)C3C=C(C)C(=O)[C@@]3(O)CC(CO)=C[C@H]2C2C(C)(C)[C@@]21OC(=O)C(C)CC (stereo partly specified)	KB-3-1	0 (no)
C/C1=C/[C@@H](C)C/C=C/[C@H]2[C@@H]3O[C@]3(C)[C@@H](C)[C@H]3[C@H](Cc4c[nH]c5ccccc45)NC(=O)[C@]32C(=O)/C=C\C(=O)[C@@H]1O	KB-3-1	1 (yes)
COCC(C(=O)OC1CC2CCC(C1)N2C)c1ccccc1 (stereo unspecified)	KB-3-1	0 (no)
CC(=O)OC[C@]12C[C@H](O)C(C)=C[C@H]1O[C@@H]1[C@H](O)[C@@H](O)[C@@]2(C)[C@]12CO2	KB-3-1	1 (yes)

Could you kindly confirm the outcome this assay logged for C[C@H]1O[C@@H](n2cnc3c(N)ncnc32)C[C@@H]1O ?
0 (no)

Now the compound CN[C@@H]1C[C@H]2O[C@@](C)([C@@H]1OC)n1c3ccccc3c3c4c(c5c6ccccc6n2c5c31)C(=O)NC4
1 (yes)

Now the compound CO[C@H]1C[C@H](O[C@H]2CC[C@]3(CO)[C@H]4CC[C@]5(C)[C@@H](C6=CC(=O)OC6)CC[C@]5(O)[C@@H]4CC[C@]3(O)C2)O[C@H](C)[C@H]1O
1 (yes)

Now the compound C[C@@H]1O[C@@H](O[C@H]2CC[C@@]3(C)C(CC[C@@H]4C3CC[C@]3(C)[C@@H](C5=CC(=O)OC5)CC[C@]43O)C2)[C@H](O[C@@H]2O[C@H](CO)[C@@H](O)[C@H](O)[C@H]2O)[C@H](O)[C@H]1O (stereo partly specified)
1 (yes)

Now the compound COC1CC(O[C@H]2CC[C@]3(C)C4CC[C@]5(C)[C@@H](C6=CC(=O)OC6)[C@@H](OC(C)=O)C[C@]5(O)C4CC[C@@H]3C2)OC(C)C1O (stereo partly specified)
1 (yes)

Now the compound C[C@@H]1[C@H](O)[C@@H](C)/C=C/C=C/CC/C=C/C=C/C=C/C=C/[C@H](O[C@H]2O[C@@H](C)[C@H](O)[C@@H](N)[C@H]2O)C[C@@H]2O[C@](O)(C[C@@H](O)[C@H](O)CC[C@@H](O)C[C@@H](O)C[C@@H](O)CC(=O)O[C@H]1C)C[C@H](O)[C@H]2C(=O)O
0 (no)

Now the compound CN1Cc2c(ccc3c2OCO3)[C@@H]2[C@H]1c1cc3c(cc1C[C@@H]2O)OCO3
1 (yes)

Now the compound CN1CCN(c2nc3ccccc3nc2Cl)CC1
0 (no)

Now the compound C[C@H](CCC(=O)O)C[C@H](C)C[C@H](C)C(=O)/C=C(\O)[C@H](C)C[C@H](C)C/C=C/[C@@H](C)[C@@H](O)[C@@H](C)[C@@H](O)C[C@@H]1CC[C@@](C)([C@H]2CC[C@@](C)([C@@H](C)O)O2)O1
1 (yes)

Now the compound CN(C)c1cc2c(cc1Sc1nc3c(N)nccc3n1CCNCC(C)(C)C)OCO2
1 (yes)

Now the compound CC(=O)OC[C@]12C[C@H](OC(=O)CC(C)C)C(C)=C[C@H]1O[C@@H]1[C@H](O)[C@@H](O)[C@@]2(C)[C@]12CO2
1 (yes)

Now the compound COC1CC(O[C@H]2CC[C@@]3(C)C(CCC4C3CC[C@]3(C)[C@@H](C5=CC(=O)OC5)CC[C@]43O)C2)OC(C)C1O (stereo partly specified)
1 (yes)

Now the compound CC1=CC2/C=C(\C)CCCC(O)/C=C/C(=O)OC23C(=O)NC(CC(C)C)C3C1C (stereo unspecified)
0 (no)

Now the compound Cc1cccc(NC(=O)c2ccc(C(F)(F)F)cc2C(=O)O)n1
0 (no)

Now the compound COc1cc2c(cc1O)C1(C)CCC(O)C(C)(C)C1CC2=O (stereo unspecified)
0 (no)

Now the compound CCC(C)(O)C1(C(=O)O)COC(=O)C1 (stereo unspecified)
0 (no)

---

# assay: P-glycoprotein substrates identified in KB-3-1 adenocarcinoma cell line, qHTS therapeutic library screen (AID 1346986); also: nearly all actives have a fitted effect of over 60% in size
# condition.summary: KB-3-1 parental cells viability, CellTiter-Glo, 72 h; series mostly up to 93.4 µM
Records with an inconclusive call do not appear. Calls of active or inactive are those of the source. The call rests on the fitted dose curve; in most records, active means well fitted inhibition curve with a large enough effect; inconclusive means small, poorly fitted or top-dose-only effect; inactive means no such curve, though single readings can be large or run the other way.
In this exercise, the only acceptable responses are 1 for active, 0 for inactive

Check out these entries, answers already filled in.
compound	class.assignment
C[C@H]1CCC/C=C/C2C[C@H](O)C[C@H]2[C@H](O)/C=C/C(=O)O1 (some centres not stated)	1
C[N@@+]1(CC2CC2)CC[C@]23c4c5ccc(O)c4O[C@H]2C(=O)CC[C@@]3(O)[C@H]1C5	0
C[C@@H]1[C@H](O)[C@@H](C)/C=C/C=C/CC/C=C/C=C/C=C/C=C/[C@H](O[C@H]2O[C@@H](C)[C@H](O)[C@@H](N)[C@H]2O)C[C@@H]2O[C@](O)(C[C@@H](O)[C@H](O)CC[C@@H](O)C[C@@H](O)C[C@@H](O)CC(=O)O[C@H]1C)C[C@H](O)[C@H]2C(=O)O	0
CC1=CC2/C=C(\C)CCCC(O)/C=C/C(=O)OC23C(=O)NC(CC(C)C)C3C1C (configuration not stated)	0

Could you kindly confirm the outcome this assay logged for C[C@H]1O[C@@H](n2cnc3c(N)ncnc32)C[C@@H]1O ?
0

Now the compound CC1Oc2cc3c(-c4c(O)cc(O)c5c(O)c6c(cc45)OC(C)C(C)C6=O)c(O)cc(O)c3c(O)c2C(=O)C1C (configuration not stated)
1

Now the compound COCC(C(=O)OC1CC2CCC(C1)N2C)c1ccccc1 (configuration not stated)
0

Provenance of the data: PubChem BioAssay (NCATS)
